# Test system: glyphosate resistant Conyza canadensis (L.) (ERICA), horseweed
# ASSAY_PROCEDURE: Postemergence herbicide evaluation, growth of Conyza canadensis (ERICA)
# Format: in vivo
# EXPERIMENTAL_PARAMETERS: Erigeron canadensis, post-emergence, 336 h, 560 g ae/ha, 14 DAA; read-out: Ave. ERICA, percent reduction in plant size relative to the untreated control
Each entry below carries its reported pest or weed control at 560 g/ha.
Give just the number in %; leave the unit off.

The cases that follow already have their pest or weed control at 560 g/ha on record.
O=C(COc1ccc(Cl)cc1Cl)Nc1ccon1 [Compound D2]: 94
COc1ccc(/C=N/OC(=O)COc2ccc(Cl)cc2Cl)cc1: 89.5
O=C(COc1ccc(Cl)cc1Cl)O/N=C/c1ccncc1: 100
C/C(=N\OC(=O)COc1ccc(Cl)cc1Cl)c1ccccc1Cl: 91.5
O=C(COc1ccc(Cl)cc1Cl)O/N=C1\CCCc2ccccc21: 77.5

Give the value of pest or weed control at 560 g/ha reported for the following: `N/C(=N\OC(=O)COc1ccc(Cl)cc1Cl)c1ccccc1`
90

Give the value of pest or weed control at 560 g/ha reported for the following: `CC(C)ONC(=O)COc1ccc(Cl)cc1Cl`
97.5

Give the value of pest or weed control at 560 g/ha reported for the following: `O=C(COc1ccc(Cl)cc1Cl)Oc1ncc(Cl)cn1`
99

Give the value of pest or weed control at 560 g/ha reported for the following: `CC(C)CONC(=O)COc1ccc(Cl)cc1Cl`
99

Give the value of pest or weed control at 560 g/ha reported for the following: `C/C(=N\OC(=O)COc1ccc(Cl)cc1Cl)c1cccnc1`
99.5

Give the value of pest or weed control at 560 g/ha reported for the following: `N/C(=N\OC(=O)COc1ccc(Cl)cc1Cl)c1cccnc1`
85

Give the value of pest or weed control at 560 g/ha reported for the following: `O=C(COc1ccc(Cl)cc1Cl)Oc1cncnc1`
98

Give the value of pest or weed control at 560 g/ha reported for the following: `O=C(COc1ccc(Cl)cc1Cl)Nc1nccs1`
87.5

Give the value of pest or weed control at 560 g/ha reported for the following: `C[N+](C)(C)CCOC(=O)COc1ccc(Cl)cc1Cl.[Cl-]`
88

Give the value of pest or weed control at 560 g/ha reported for the following: `O=C(COc1ccc(Cl)cc1Cl)O/N=C/c1ccccc1`
85

Give the value of pest or weed control at 560 g/ha reported for the following: `C/C(=N\OC(=O)COc1ccc(Cl)cc1Cl)c1ccncc1`
100

Give the value of pest or weed control at 560 g/ha reported for the following: `C/C(=N\OC(=O)COc1ccc(Cl)cc1Cl)c1ccccc1`
90

Give the value of pest or weed control at 560 g/ha reported for the following: `O=C(COc1ccc(Cl)cc1Cl)Nc1c(Cl)c(F)nc(F)c1Cl`
12.5

Give the value of pest or weed control at 560 g/ha reported for the following: O=C(COc1ccc(Cl)cc1Cl)Oc1cccnn1 [Compound E2]
85

Give the value of pest or weed control at 560 g/ha reported for the following: `O=C(COc1ccc(Cl)cc1Cl)O/N=C/c1ccccn1`
99.5

Give the value of pest or weed control at 560 g/ha reported for the following: `O=C(COc1ccc(Cl)cc1Cl)O/N=C/c1cccnc1`
99

Give the value of pest or weed control at 560 g/ha reported for the following: `O=C(COc1ccc(Cl)cc1Cl)Nc1cc[nH]n1`
100

Give the value of pest or weed control at 560 g/ha reported for the following: `Cc1nccc(NC(=O)COc2ccc(Cl)cc2Cl)c1C`
100
